Target: DGKα (Homo sapiens (Human)); further: full length DGKα 7.5 nM
Sequence (P23743 whole entry): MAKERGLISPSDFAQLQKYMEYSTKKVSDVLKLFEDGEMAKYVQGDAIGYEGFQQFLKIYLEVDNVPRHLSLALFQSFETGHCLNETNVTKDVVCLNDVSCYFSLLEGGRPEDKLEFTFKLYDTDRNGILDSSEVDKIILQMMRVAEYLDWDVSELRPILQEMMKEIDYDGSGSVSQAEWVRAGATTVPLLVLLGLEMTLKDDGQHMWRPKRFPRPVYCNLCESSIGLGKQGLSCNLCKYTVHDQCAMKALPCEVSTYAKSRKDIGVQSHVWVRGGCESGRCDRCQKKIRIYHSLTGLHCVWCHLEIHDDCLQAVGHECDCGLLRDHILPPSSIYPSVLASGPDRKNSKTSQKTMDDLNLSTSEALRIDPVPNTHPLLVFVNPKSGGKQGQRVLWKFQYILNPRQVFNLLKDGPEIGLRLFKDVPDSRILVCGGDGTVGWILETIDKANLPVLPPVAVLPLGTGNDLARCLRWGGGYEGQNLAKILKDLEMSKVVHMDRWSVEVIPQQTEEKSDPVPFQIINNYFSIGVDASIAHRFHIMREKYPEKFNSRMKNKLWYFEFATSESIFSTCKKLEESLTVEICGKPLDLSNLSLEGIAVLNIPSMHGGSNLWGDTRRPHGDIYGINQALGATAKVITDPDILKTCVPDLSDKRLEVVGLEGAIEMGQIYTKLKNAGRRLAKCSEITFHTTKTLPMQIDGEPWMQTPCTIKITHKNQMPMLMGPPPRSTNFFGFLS
pIC50: −log10 of the molar value.
Outcome label depends on pIC50 relative to 6: at/above gives Satisfied, below gives Not satisfied.

Here's what some known entries look like.
> print(dat)
                                   molecule     labelvalue
1  CC[C@H]1CN(C(C)c2ccc3nc(C)cn3n2)[C@H](CC)CN1c1nc(=O)n(C)c2cc(CC#N)nn12 (single isomer, unassigned) [Compound A45b]      Satisfied
2  CC[C@H]1CN(C(C)c2ccc(F)cc2OC)[C@H](CC)CN1c1cc(=O)n(C)c2cc(CC#N)nn12 (stereo partly drawn) [Compound A16]  Not satisfied
3  CC[C@H]1CN(C(C)c2ccn3nc(C)cc3n2)[C@H](CC)CN1c1cc(=O)n(C)c2cc(CC#N)nn12 (single isomer, unassigned) [Compound A40b]      Satisfied
4  CC[C@H]1CN(C(C)c2ccc3nc(C)cn3n2)[C@H](CC)CN1c1cc(=O)n(C)c2cc(CC#N)nn12 (single isomer, unassigned) [Compound A38b]      Satisfied
5  CC[C@H]1CN(C(C)c2ccc3nc(C)cn3n2)[C@H](CC)CN1c1nc(=O)n(C)c2cc(CC#N)nn12 (single isomer, unassigned) [Compound A45a]  Not satisfied

Determine whether this molecule has pIC50 no lower than 6: CC[C@@H]1CN(c2cc(=O)[nH]c3cc(CC#N)nn23)[C@@H](C)CN1C(C)c1ccc2nccnc2c1 (single isomer, unassigned) [Compound A4a] Not satisfied

I'd appreciate it if you could say whether CC[C@H]1CN(C(C)c2ccn3nc(C4CC4)cc3n2)[C@H](CC)CN1c1nc(=O)n(C)c2cc(CC#N)nn12 (single isomer, unassigned) [Compound A54b] has pIC50 at least equal to 6. Satisfied

Entry CC[C@H]1CN(C(C)c2ccc3cc(C(F)F)sc3n2)[C@H](CC)CN1c1cc(=O)n(C)c2cc(CC#N)nn12 (single isomer, unassigned) [Compound A37b] : is its pIC50 no less than 6? Satisfied

Check the entry CC[C@H]1CN(C(C)c2ccc3cc(C(F)F)sc3n2)[C@H](CC)CN1c1cc(=O)n(C)c2cc(CC#N)nn12 (single isomer, unassigned) [Compound A37a] : does pIC50 equal or exceed 6? Satisfied

Please check the record CC(c1ccc2nccnc2c1)N1CCC(c2cc(=O)n(C)c3cc(CC#N)nn23)C[C@@H]1C (single isomer, unassigned) [Compound A34a] and state if its pIC50 is at or above 6. Not satisfied

Please check the record CC[C@H]1CN(C(C)c2ccc3nc(C)sc3c2)[C@H](CC)CN1c1nc(=O)n(C)c2cc(CC#N)nn12 (single isomer, unassigned) [Compound A53a] and state if its pIC50 is at or above 6. Satisfied

Quick check: does CC[C@H]1CN(C(C)c2ccc3nc(C)sc3n2)[C@H](CC)CN1c1cc(=O)n(C)c2cc(CC#N)nn12 (single isomer, unassigned) [Compound A35b] have pIC50 greater than or equal to 6? Satisfied

###

Biological target: DGKζ (Homo sapiens (Human))
Sequence (Q13574 other isoform, or with tags, fused parts or gaps): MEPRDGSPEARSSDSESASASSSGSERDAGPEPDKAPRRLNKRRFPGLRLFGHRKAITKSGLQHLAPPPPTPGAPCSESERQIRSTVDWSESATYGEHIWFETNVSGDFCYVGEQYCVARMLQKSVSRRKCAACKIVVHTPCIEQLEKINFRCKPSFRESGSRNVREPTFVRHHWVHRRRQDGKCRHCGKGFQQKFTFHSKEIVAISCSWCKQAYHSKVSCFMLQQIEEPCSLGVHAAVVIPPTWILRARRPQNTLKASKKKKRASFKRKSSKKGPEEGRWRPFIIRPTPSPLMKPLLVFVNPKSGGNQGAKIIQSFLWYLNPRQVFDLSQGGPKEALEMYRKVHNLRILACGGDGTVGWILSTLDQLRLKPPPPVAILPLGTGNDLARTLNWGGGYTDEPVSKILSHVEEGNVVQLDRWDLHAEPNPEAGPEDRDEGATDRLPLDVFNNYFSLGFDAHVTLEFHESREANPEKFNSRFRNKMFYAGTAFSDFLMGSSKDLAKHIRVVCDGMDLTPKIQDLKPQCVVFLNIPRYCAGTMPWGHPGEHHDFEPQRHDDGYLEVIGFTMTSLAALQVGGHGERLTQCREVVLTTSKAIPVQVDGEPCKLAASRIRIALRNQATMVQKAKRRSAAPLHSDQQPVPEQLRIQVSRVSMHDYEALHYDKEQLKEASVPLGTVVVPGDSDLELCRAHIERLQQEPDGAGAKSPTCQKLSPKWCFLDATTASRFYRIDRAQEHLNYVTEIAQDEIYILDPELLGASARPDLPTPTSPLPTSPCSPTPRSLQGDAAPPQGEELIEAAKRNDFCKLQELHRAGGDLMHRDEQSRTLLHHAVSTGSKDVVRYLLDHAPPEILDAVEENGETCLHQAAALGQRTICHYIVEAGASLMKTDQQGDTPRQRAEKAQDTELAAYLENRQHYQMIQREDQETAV
Test: Biochemical DGK IC50 assay (ADP-Glo, lipid micelle substrate), DGKζ
Details: full length DGKζ 0.5 nM, ATP 140 μM, DAG 80 μM
pIC50: −log10 of the molar value.
Label 0 (no) if pIC50 falls below 6; label 1 (yes) in every other case.

// below: answered compounds
> print(dat)
                                   compound  labelvalue
1  CC[C@H]1CN(C(C)c2ccc3nc(C)cn3n2)[C@H](CC)CN1c1cc(=O)n(C)c2cc(CC#N)nn12 (single isomer, unassigned) [Compound A38a]      0 (no)
2  CC[C@H]1CN(C(C)c2ccc(F)cc2OC)[C@H](CC)CN1c1cc(=O)n(C)c2cc(CC#N)nn12 (stereo partly drawn)     1 (yes)
3  CC(c1ccc2nccnc2c1)N1CCC(c2cc(=O)n(C)c3cc(CC#N)nn23)C[C@@H]1C (single isomer, unassigned) [Compound A34a]      0 (no)
4  CC[C@@H]1CN(c2cc(=O)n(C)c3cc(CC#N)nn23)[C@@H](C)CN1[C@@H](C)c1ccc2ncsc2n1 (single isomer, unassigned) [Compound A29a]     1 (yes)
5  CC[C@H]1CN(C(C)c2ccc(C3CC3)nc2F)[C@H](CC)CN1c1cc(=O)n(C)c2cc(CC#N)nn12 (stereo partly drawn)     1 (yes)
6  CC[C@@H]1CN(c2c(F)c(=O)n(C)c3cc(CC#N)nn23)[C@@H](C)CN1C(C)c1ccc(C2CC2)nc1 (single isomer, unassigned) [Compound A24b]      0 (no)

Tell me whether pIC50 is at least 6 here: CC[C@@H]1CN(c2cc(=O)n(C)c3cc(CC#N)nn23)[C@@H](C)CN1C(C)c1ccc2ncsc2c1 (single isomer, unassigned) [Compound A28b] 0 (no)

Item CC[C@H]1CN(C(C)c2ccc3nc(C)sc3n2)[C@H](CC)CN1c1cc(=O)n(C)c2cc(CC#N)nn12 (single isomer, unassigned) [Compound A35b] with pIC50 of 6 or above? 1 (yes)

Dear colleague, could you confirm whether CC[C@@H]1CN(c2c(F)c(=O)n(C)c3cc(CC#N)nn23)[C@@H](C)CN1C(C)c1ccc(C2CC2)nc1 (single isomer, unassigned) [Compound A24a] has pIC50 at or above 6? 0 (no)

###

Assay system DGKα (Homo sapiens (Human)); read-out recorded as IC50. Further: full length DGKα 7.5 nM.
Form entry: value (µM) — number only.

Worked cases, IC50 given:
> print(dat)
                                   molecule  recordedmetric  number
1  CC(c1ccc2nccnc2c1)N1C[C@H](C)N(c2cc(=O)n(C)c3cc(CC#N)nn23)C[C@H]1C (mixture of isomers)            IC50    3.12
2  CC[C@H]1CN(C(C)c2ccc3nc(C)c(F)n3n2)[C@H](CC)CN1c1nc(=O)n(C)c2cc(CC#N)nn12 (single isomer, unassigned) [Compound A48b]            IC50   0.063

Next, consider the following molecule.
Report IC50 for COc1cnc2ccc(C(C)N3C[C@H](C)N(c4cc(=O)n(C)c5cc(CC#N)nn45)C[C@H]3C)cc2n1 (stereo partly drawn) tested on DGKα (Homo sapiens (Human)). 16.9
